Assay: physchem
Settings: water, thermodynamic from solid
READOUT KIND: solubility (mg/mL)
Give bare numbers, in mg/mL.

Short answer for Cc1cccc2c(=O)[nH]c(CCN3CCC[C@@H]3CO)cc12.Cl.O.O [monohydrochloride dihydrate] : solubility was 45
